tgt: Microphthalmia-associated transcription factor (Homo sapiens) (UniProt O75030)
Sequence (O75030 whole entry, looked up): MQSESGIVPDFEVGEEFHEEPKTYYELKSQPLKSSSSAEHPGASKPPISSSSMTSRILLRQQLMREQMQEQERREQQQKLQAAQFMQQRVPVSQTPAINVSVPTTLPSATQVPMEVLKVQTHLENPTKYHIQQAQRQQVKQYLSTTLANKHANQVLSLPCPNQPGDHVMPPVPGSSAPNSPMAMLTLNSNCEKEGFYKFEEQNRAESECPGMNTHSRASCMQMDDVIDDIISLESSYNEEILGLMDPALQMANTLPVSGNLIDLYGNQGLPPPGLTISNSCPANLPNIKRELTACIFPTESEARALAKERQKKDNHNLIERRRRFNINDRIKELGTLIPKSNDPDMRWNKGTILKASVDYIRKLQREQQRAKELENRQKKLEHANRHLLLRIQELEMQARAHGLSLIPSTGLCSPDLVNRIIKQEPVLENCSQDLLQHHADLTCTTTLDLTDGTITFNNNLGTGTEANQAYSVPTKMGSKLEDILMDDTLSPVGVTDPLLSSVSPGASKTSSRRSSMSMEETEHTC
experimental_protocol: MITF inhibitors by FRET titration, dose response, biochemical, high throughput (AID 1259375);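 further: FRET between CFP-tagged and YFP-tagged MITF protein partners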
condition: FRET biochemical assay, MITF inhibition
Active and inactive are the calls of the source. How the calls were made is not given here.
Tick one outcome: yes for active, no for inactive

Solved entries (count: 4):
compound=CCOC(=O)N1CCN(C(=S)Nc2ccc(OCC)cc2)CC1 cat=no
compound=CCOc1ccccc1N1CCN(Cc2cc(OC)c(O)c([N+](=O)[O-])c2)CC1 cat=no
compound=COc1cc(CN2CCN(C3CCCC3)CC2)cc(OC)c1OC cat=no
compound="O=C1O[C@H](C(O)CO)C(O)=C1O (some centres undefined)" cat=no

Next, consider the following compound.
Dear all, I need the recorded test outcome for O=C(/C=C/c1ccco1)NC(=S)Nc1cccc(C(=O)O)c1 , thank you.
no

Origin of measurements: PubChem BioAssay AID1259375
